test system: A. baumannii ATCC 19606; assay: MIC, broth microdilution (CO-ADD), A. baumannii; assay type: cell-based, Acinetobacter baumannii; conditions: Acinetobacter baumannii, ATCC19606, top dose 32 µg/mL
ENDPOINT: MIC

Consider the following illustrative entries.
1) Cc1ccc2[nH]cc(C(=O)NCCCNCCCCCCCCNCCCNC(=O)c3c[nH]c4ccc(C)cc34)c2c1 [Compound 15d] = > 40 µM
2) O=C(NCCCNCCCCCCCCCCCCNCCCNC(=O)c1c[nH]c2ccccc12)c1c[nH]c2ccccc12.O=C(O)C(F)(F)F.O=C(O)C(F)(F)F [Compound 12f] = 4.82 µM

Note to self: MIC recorded for Cc1cccc2c(C(=O)NCCCNCCCCNCCCNC(=O)c3c[nH]c4c(C)cccc34)c[nH]c12 [Compound 18a] was > 43 µM

Note to self: MIC recorded for COc1cccc2c(C(=O)NCCCNCCCCCCCCCCCCNCCCNC(=O)c3c[nH]c4c(OC)cccc34)c[nH]c12.O=C(O)C(F)(F)F.O=C(O)C(F)(F)F [Compound 17f] was > 36 µM

* * *

test system: S. aureus ATCC 25923; assay: MIC, broth dilution, S. aureus; type: cell-based, Staphylococcus aureus; settings: Staphylococcus aureus, ATCC25923; S. aureus ATCC 25923, 18 h; read-out: MIC Sa
Strictly below 60 µM in MIC: True. Otherwise: False.

Solved cases (3 shown):
1. Cc1ccc2[nH]cc(C(=O)NCCCNCCCCCCNCCCNC(=O)c3c[nH]c4ccc(C)cc34)c2c1 [Compound 15b] = False
2. COc1ccc2[nH]cc(C(=O)NCCCNCCCCCCCCCCNCCCNC(=O)c3c[nH]c4ccc(OC)cc34)c2c1.O=C(O)C(F)(F)F.O=C(O)C(F)(F)F [Compound 14e] = True
3. COc1cccc2c(C(=O)NCCCNCCCCNCCCNC(=O)c3c[nH]c4c(OC)cccc34)c[nH]c12 [Compound 17a] = False

Here is the next item to consider.
*Q* Does the reported MIC of O=C(NCCCNCCCCCCCCNCCCNC(=O)c1c[nH]c2c(F)cccc12)c1c[nH]c2c(F)cccc12 [Compound 16d] stay below 60 µM?
*A* False

* * *

system: MRSA ATCC 43300; experiment: MIC, broth microdilution (CO-ADD), MRSA; format: cell-based, methicillin-resistant S. aureus; settings: Staphylococcus aureus; MRSA ATCC 43300; top dose 32 µg/mL; read-out: MIC MRSA
Entries and their measured MIC follow.

1. O=C(NCCCNCCCCCCCCCCCCNCCCNC(=O)c1c[nH]c2ccc(Br)cc12)c1c[nH]c2ccc(Br)cc12.O=C(O)C(F)(F)F.O=C(O)C(F)(F)F [Compound 13f] = ≤ 0.25 µM
2. O=C(NCCCNCCCCNCCCNC(=O)c1c[nH]c2c(F)cccc12)c1c[nH]c2c(F)cccc12 [Compound 16a] = > 43 µM
3. COc1cccc2c(C(=O)NCCCNCCCCCCCCNCCCNC(=O)c3c[nH]c4c(OC)cccc34)c[nH]c12 [Compound 17d] = ≤ 0.3 µM
4. Cc1cccc2c(C(=O)NCCCNCCCCCCCCNCCCNC(=O)c3c[nH]c4c(C)cccc34)c[nH]c12 [Compound 18d] = ≤ 0.31 µM
5. O=C(NCCCNCCCCCCCCNCCCNC(=O)c1c[nH]c2c(F)cccc12)c1c[nH]c2c(F)cccc12 [Compound 16d] = 9.89 µM

Note to self: MIC recorded for O=C(NCCCNCCCCCCNCCCNC(=O)c1c[nH]c2ccccc12)c1c[nH]c2ccccc12.O=C(O)C(F)(F)F.O=C(O)C(F)(F)F [Compound 12b] was ≤ 0.34 µM

Note to self: MIC recorded for COc1cccc2c(C(=O)NCCCNCCCCCCCCCCCCNCCCNC(=O)c3c[nH]c4c(OC)cccc34)c[nH]c12.O=C(O)C(F)(F)F.O=C(O)C(F)(F)F [Compound 17f] was ≤ 0.28 µM
